- methodDescription: Solvolysis of the BF3 moiety in phosphate buffer
- Assay type: physicochemical
- assayConditions: pK of the first fluorine of the BF3− moiety
measuredProperty: pKB-F
API doc: respond with a numeric literal and nothing else, no unit.

F[B-](F)(F)[C@@H]1CCC[NH2+]1	4.2615
[NH3+]C(Cc1ccccc1)[B-](F)(F)F (centres unmarked)	3.904
C[C@H]([NH3+])[B-](F)(F)F	3.6895

Briefly, pKB-F measured for CC(C)C[C@H]([NH3+])[B-](F)(F)F : 3.7181

Memo: CSCC[C@H]([NH3+])[B-](F)(F)F , reported pKB-F: 4.0041

---

- methodDescription: Solvolysis of the BF3 moiety in phosphate buffer
- Assay type: physicochemical
- assayConditions: rate of solvolysis, phosphate buffer pH 7.4
# note: exactly 0.0001 min⁻¹ is not below, so it is condition not met; use condition met for k (solv)/min^−1 strictly under it

[NH3+]C(Cc1ccccc1)[B-](F)(F)F (centres unmarked) [Phe-BF3]	condition not met
CC(C)C[C@H]([NH3+])[B-](F)(F)F [Leu-BF3]	condition not met
F[B-](F)(F)[C@@H]1CCC[NH2+]1 [Pro-BF3]	condition met

Attention now shifts to the item below.
input: I wonder whether C[C@H]([NH3+])[B-](F)(F)F [Ala-BF3] has k (solv)/min^−1 below 0.0001 min⁻¹. Can you tell?
output: condition not met

---

- methodDescription: Solvolysis of the BF3 moiety in phosphate buffer
- Type: physicochemical
- assayConditions: half-life in phosphate buffer at pH 7.4
Measured t1/2/min, listed per entry for reference.
I only need the number, in h, no unit after it.

Known results for molecules:
[NH3+]C(Cc1ccccc1)[B-](F)(F)F (centres unmarked) [Phe-BF3]	92.45
CSCC[C@H]([NH3+])[B-](F)(F)F [Met-BF3]	116.4
F[B-](F)(F)[C@@H]1CCC[NH2+]1 [Pro-BF3]	210.58

Short answer for C[C@H]([NH3+])[B-](F)(F)F [Ala-BF3] : t1/2/min was 56.42

Reported t1/2/min for CC(C)C[C@H]([NH3+])[B-](F)(F)F [Leu-BF3] was 60.25

---

The entries below are paired with their reported inhibition at 25000 µM.
- Tested on: U87MG cells
- methodDescription: In vitro competitive inhibition of boramino acid uptake by natural amino acids and transporter inhibitors
- assayConditions: Homo sapiens, U-87 MG, 1 h, read-out: inhibition of uptake of 18F-Pro-BF3
Could you give me the number in %? Just the number is fine.

CNC(C)(C)C(=O)O	39.3
N=C(N)NCCC[C@H](N)C(=O)O	15.6

Now consider the entry below.
Sure, the documented inhibition at 25000 µM for N[C@@H](Cc1ccccc1)C(=O)O is 0.1

Hello, the source for this data is patent US20190055267A1, in case you need it.
